# Assay Notes: Flavor / organoleptic characteristics of the alkyldienamides
# Format: in vivo
# Test Settings: flavor characteristics

# Compound, Primary characteristic
measured = [
    ("CC/C=C\\CC/C=C/C(=O)NCC [N-ethyl E2,Z6-nonadienamide]", "Umami"),
    ("CC/C=C\\CC/C=C/C(=O)NCc1ccc2c(c1)OCO2", "Numbing"),
    ("CC/C=C\\CC/C=C/C(=O)NC1CC1 [N-cyclopropyl E2,Z6-nonadienamide]", "Umami"),
    ("CCCCC/C=C\\CC/C=C/C(=O)NCC(C)C [N-isobutyl E2,Z6-dodecadienamide]", "Numbing"),
]
